# TARGET SYSTEM: T1, VEGFR-1-Fc (UniProt P17948 27-338)
# T1 construct: domain: first three Ig domains; expressed in Drosophila S2 cells, purified on Protein A sepharose; also called VEGFR-1-Fc fusion protein; not shown: Fc fragment from the Signal-pIgPlus vector
# T1 sequence (P17948 27-338): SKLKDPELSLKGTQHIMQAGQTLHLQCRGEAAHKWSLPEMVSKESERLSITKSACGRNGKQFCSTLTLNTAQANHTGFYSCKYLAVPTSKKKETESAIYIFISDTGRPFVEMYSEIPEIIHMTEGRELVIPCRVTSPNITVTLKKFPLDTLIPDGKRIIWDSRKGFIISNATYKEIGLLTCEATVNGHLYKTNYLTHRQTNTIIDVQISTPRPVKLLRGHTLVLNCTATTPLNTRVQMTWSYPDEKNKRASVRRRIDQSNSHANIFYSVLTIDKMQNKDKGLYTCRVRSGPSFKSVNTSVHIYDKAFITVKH
# ASSAY PROTOCOL: receptor-Fc IP
MEASUREMENT TYPE: binding result

INSERT INTO assay_data (binder, result) VALUES
  ('34-5 (ligand) GQNHHEVVKSIDNEWRKTQCMPIETLVDIFQEFGVATNTFFKPSCVPLMRCGGCCNDEGLECVPTEESNITMQIMRIKPHQGQHIGEMSFANHTSCRCMSKLD', 'no binding'),
  ('42-3 (ligand) AHYNTEILKFMDVYQRSYCHPREVCIDVGKEFGVATNTFFKPPCVSVYRCGGCCNSEGLQCVPTEESNITMQIMRIKPHQGQHIGEMSFLQHNKCECRPKKD', 'no binding'),
  ('12-1 (ligand) GQNHHEVVKFMDVYQRSYCHPIETLVDIFQEFGVATNTFFKPPCVSVYRCGGCCNDEGLECVPTEESNITMQIMRIKPHQGQHIGEMSFLQHNKCECRPKKDLVF', 'binds'),
  ('44-11 (ligand) AHYNTEILKFMDVYQRSYCHPREVCIDVGKEFGVATNTFFKPSCVPLMRCGGCCNSEGLQCVPTEESNITMQIMRITVPLSQGPKPVTISFLQHNKCECRPKKD', 'no binding');

Hey, just so you know, these numbers are from patent US20080058263A1.
